Quick reference for IC50 among some molecules
# MEASURED ON: (α4)2(β2)3 nAChR (high sensitivity) (Rattus norvegicus, UniProt P09483+P12390)
# Construct: subunits in pGEMhe, mRNA alpha4:beta2 1:10 injected in Xenopus laevis oocytes; pentamer
# Sequence (P09483 31-630): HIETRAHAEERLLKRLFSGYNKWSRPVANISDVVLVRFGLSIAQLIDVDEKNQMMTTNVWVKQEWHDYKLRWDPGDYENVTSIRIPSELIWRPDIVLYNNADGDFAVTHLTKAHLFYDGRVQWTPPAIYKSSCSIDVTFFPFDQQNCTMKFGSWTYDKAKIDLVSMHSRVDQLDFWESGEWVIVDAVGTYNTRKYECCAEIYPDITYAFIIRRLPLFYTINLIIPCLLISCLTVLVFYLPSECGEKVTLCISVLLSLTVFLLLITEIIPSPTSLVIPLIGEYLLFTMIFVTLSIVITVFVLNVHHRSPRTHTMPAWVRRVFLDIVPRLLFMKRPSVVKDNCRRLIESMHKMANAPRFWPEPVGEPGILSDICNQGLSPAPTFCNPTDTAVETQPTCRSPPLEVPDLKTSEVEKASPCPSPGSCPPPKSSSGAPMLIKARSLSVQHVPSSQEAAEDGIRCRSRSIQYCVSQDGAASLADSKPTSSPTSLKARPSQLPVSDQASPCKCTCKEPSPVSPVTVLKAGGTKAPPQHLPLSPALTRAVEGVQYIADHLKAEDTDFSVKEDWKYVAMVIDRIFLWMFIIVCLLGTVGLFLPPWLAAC
# Sequence (P12390 25-500): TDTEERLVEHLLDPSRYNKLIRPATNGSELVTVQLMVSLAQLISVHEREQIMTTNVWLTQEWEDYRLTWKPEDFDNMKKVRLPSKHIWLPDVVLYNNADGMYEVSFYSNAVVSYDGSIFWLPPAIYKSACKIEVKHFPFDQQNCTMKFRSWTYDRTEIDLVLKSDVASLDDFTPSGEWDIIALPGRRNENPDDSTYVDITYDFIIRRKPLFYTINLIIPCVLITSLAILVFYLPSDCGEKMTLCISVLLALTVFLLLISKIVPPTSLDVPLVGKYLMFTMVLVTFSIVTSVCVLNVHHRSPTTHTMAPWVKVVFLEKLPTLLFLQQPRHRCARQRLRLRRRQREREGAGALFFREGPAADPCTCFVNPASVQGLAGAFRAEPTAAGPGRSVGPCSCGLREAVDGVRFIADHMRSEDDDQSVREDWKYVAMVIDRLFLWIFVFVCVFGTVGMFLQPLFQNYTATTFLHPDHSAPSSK
# ASSAY NOTES: two-electrode voltage clamp, Xenopus oocytes
# Text: two-electrode voltage clamp, Xenopus oocytes on (α4)2(β2)3 nAChR (high sensitivity)
Field format: number, assumed µM, no unit text.

For record CC(C)[C@H]1CC[C@H](C)C[C@@H]1O [(+)-menthol] the listed IC50 is 48.3

For record CC(C)[C@@H]1CC[C@@H](C)C[C@H]1O [(−)-menthol] the listed IC50 is 44.9
